All values here come from paper PMC10451648.

Answer each item with its documented Hemolysis (concentration at which hemolytic activity is exhibited).
# System: human red blood cells
# assay.overview: Hemolysis activity against red blood cells
# conditions.used: human RBCs in 172 mM Tris-HCl pH 7.6, 30 min at 37 °C, absorbance 535 nm; DMSO = 0%, M-Lycotoxin = 100%; final peptide conc. 100 to 0.39
Square brackets hold non-standard residues; d marks the D form. Peptide text beside a SMILES is read from it. Api = NC1(C(=O)O)CCNCC1; Aib = CC(C)(N)C(=O)O
Write the number in µM without appending the unit.

Would you mind telling me what Hemolysis (concentration at which hemolytic activity is exhibited) value was observed for CC[C@H](C)[C@H](NC(=O)CN)C(=O)N[C@@H](CCCCN)C(=O)NC1(C(=O)N[C@@H](Cc2ccccc2)C(=O)N[C@@H](CC(C)C)C(=O)N[C@@H](CCCCN)C(=O)N[C@@H](CO)C(=O)NC(C)(C)C(=O)N[C@@H](CCCCN)C(=O)N[C@@H](CCCCN)C(=O)N[C@@H](Cc2ccccc2)C(=O)N[C@H](C(=O)N[C@@H](CCCCN)C(=O)NC(C)(C)C(=O)N[C@@H](Cc2ccccc2)C(=O)N[C@@H](CCCCN)C(N)=O)C(C)C)CCNCC1 [Peptide 3] (H-GIK[Api]FLKS[Aib]KKFVK[Aib]FK-NH2) ?
25

Would you mind telling me what Hemolysis (concentration at which hemolytic activity is exhibited) value was observed for CC[C@H](C)[C@H](NC(=O)CN)C(=O)N[C@@H](CCCCN)C(=O)N[C@@H](CCCCN)C(=O)N[C@@H](Cc1ccccc1)C(=O)N[C@@H](CC(C)C)C(=O)N[C@@H](CCCCN)C(=O)N[C@@H](CO)C(=O)NC(C)(C)C(=O)NC1(C(=O)N[C@@H](CCCCN)C(=O)N[C@@H](Cc2ccccc2)C(=O)N[C@H](C(=O)N[C@@H](CCCCN)C(=O)NC(C)(C)C(=O)N[C@@H](Cc2ccccc2)C(=O)N[C@@H](CCCCN)C(N)=O)C(C)C)CCNCC1 [Peptide 5] (H-GIKKFLKS[Aib][Api]KFVK[Aib]FK-NH2) ?
50

Would you mind telling me what Hemolysis (concentration at which hemolytic activity is exhibited) value was observed for CC[C@H](C)[C@H](NC(=O)CN)C(=O)N[C@@H](CCCCN)C(=O)N[C@@H](CCCCN)C(=O)N[C@@H](Cc1ccccc1)C(=O)N[C@@H](CC(C)C)C(=O)NC1(C(=O)N[C@@H](CO)C(=O)NC(C)(C)C(=O)N[C@@H](CCCCN)C(=O)N[C@@H](CCCCN)C(=O)N[C@@H](Cc2ccccc2)C(=O)N[C@H](C(=O)N[C@@H](CCCCN)C(=O)NC(C)(C)C(=O)N[C@@H](Cc2ccccc2)C(=O)N[C@@H](CCCCN)C(N)=O)C(C)C)CCNCC1 [Peptide 4] (H-GIKKFL[Api]S[Aib]KKFVK[Aib]FK-NH2) ?
12.5

* * *

# Tested on: multidrug-resistant P. aeruginosa (MDRP)
# Format: cell-based, Pseudomonas aeruginosa
# conditions.used: multidrug-resistant (MDRP, 18 h)
Square brackets hold non-standard residues; d marks the D form. Peptide text beside a SMILES is read from it. Api = NC1(C(=O)O)CCNCC1; Aib = CC(C)(N)C(=O)O
measured.attribute: MIC, MDRP (µM)
Write the number in µM without appending the unit.

Would you mind telling me what MIC, MDRP value was observed for CC[C@H](C)[C@H](NC(=O)CN)C(=O)N[C@@H](CCCCN)C(=O)N[C@@H](CCCCN)C(=O)N[C@@H](Cc1ccccc1)C(=O)N[C@@H](CC(C)C)C(=O)N[C@@H](CCCCN)C(=O)N[C@@H](CO)C(=O)NC(C)(C)C(=O)NC1(C(=O)N[C@@H](CCCCN)C(=O)N[C@@H](Cc2ccccc2)C(=O)N[C@H](C(=O)N[C@@H](CCCCN)C(=O)NC(C)(C)C(=O)N[C@@H](Cc2ccccc2)C(=O)N[C@@H](CCCCN)C(N)=O)C(C)C)CCNCC1 [Peptide 5] (H-GIKKFLKS[Aib][Api]KFVK[Aib]FK-NH2) ?
6.25
